Reported Kd, PIKfyve protein (Homo sapiens (Human)).

- molecule_smiles: "Cc1ccc(NS(=O)(=O)c2cccc(C(F)(F)F)c2)cc1Nc1nc(-c2cccnc2)c2[nH]ccc2n1"
  Kd: "1000 nM"
- molecule_smiles: "COc1ccc(C(=O)Nc2cccc(C(F)(F)F)c2)cc1Nc1nc(-c2cccnc2)c2[nH]ccc2n1"
  Kd: "640 nM"
- molecule_smiles: "Cc1ccc(C(=O)Nc2cc(C(F)(F)F)ccc2F)cc1Nc1nc(-c2cccnc2)c2[nH]ccc2n1"
  Kd: "16 nM"

Turning now to a further compound:
Answer with reported Kd of "Cc1cc(NC(=O)c2cccc(C(F)(F)F)c2)ccc1Nc1nc(-c2cccnc2)c2[nH]ccc2n1"
> 30000 nM
